# Test system: SK-MEL-28
# Assay procedure: Cytotoxicity against human SK-MEL-28 cells after 48 hrs by SRB assay
# Assay type: functional, cell-based
# Experimental setup: Homo sapiens, SK-MEL-28, 48 h
Assay endpoint: GI50

item_smiles=C/C=C1\NC(=O)[C@H](Cc2ccc(-c3ccccc3)cc2)NC(=O)[C@@H](C(C)C)NC(=O)[C@@H]([C@H](C)CC)NC(=O)[C@H](NC(=O)[C@H](NC(=O)[C@H](CCCN)NC(=O)[C@H]2CCCN2C(=O)[C@H](NC(=O)[C@@H](NC(=O)[C@@H](NC(=O)[C@H](NC(=O)CCCC(C)C)C(C)C)[C@@H](C)O)C(C)C)C(C)C)[C@H](C)CC)[C@H](C)OC(=O)[C@H](C(C)C)NC1=O assay_endpoint=GI50 measurement="214 nM"
item_smiles=C/C=C1\NC(=O)[C@H](Cc2cccc(Cl)c2)NC(=O)[C@@H](C(C)C)NC(=O)[C@@H]([C@H](C)CC)NC(=O)[C@H](NC(=O)[C@H](NC(=O)[C@H](CCCN)NC(=O)[C@H]2CCCN2C(=O)[C@H](NC(=O)[C@@H](NC(=O)[C@@H](NC(=O)[C@H](NC(=O)CCCC(C)C)C(C)C)[C@@H](C)O)C(C)C)C(C)C)[C@H](C)CC)[C@H](C)OC(=O)[C@H](C(C)C)NC1=O assay_endpoint=GI50 measurement="313 nM"
item_smiles=C/C=C1\NC(=O)[C@H](Cc2ccccc2)NC(=O)[C@@H](C(C)C)NC(=O)[C@@H]([C@H](C)CC)NC(=O)[C@H](NC(=O)[C@H](NC(=O)[C@H](CCCC[N+](C)(C)C)NC(=O)[C@H]2CCCN2C(=O)[C@H](NC(=O)[C@@H](NC(=O)[C@@H](NC(=O)[C@H](NC(=O)CC[C@@H](C)CC)C(C)C)[C@@H](C)O)C(C)C)C(C)C)[C@H](C)CC)[C@H](C)OC(=O)[C@H](C(C)C)NC1=O assay_endpoint=GI50 measurement="979 nM"
item_smiles=C/C=C1\NC(=O)[C@H](Cc2ccc(I)cc2)NC(=O)[C@@H](C(C)C)NC(=O)[C@@H]([C@H](C)CC)NC(=O)[C@H](NC(=O)[C@H](NC(=O)[C@H](CCCN)NC(=O)[C@H]2CCCN2C(=O)[C@H](NC(=O)[C@@H](NC(=O)[C@@H](NC(=O)[C@H](NC(=O)CC[C@@H](C)CC)C(C)C)[C@@H](C)O)C(C)C)C(C)C)[C@H](C)CC)[C@H](C)OC(=O)[C@H](C(C)C)NC1=O assay_endpoint=GI50 measurement="202 nM"
item_smiles=C/C=C1\NC(=O)[C@H](Cc2ccccc2Cl)NC(=O)[C@@H](C(C)C)NC(=O)[C@@H]([C@H](C)CC)NC(=O)[C@H](NC(=O)[C@H](NC(=O)[C@H](CCCN)NC(=O)[C@H]2CCCN2C(=O)[C@H](NC(=O)[C@@H](NC(=O)[C@@H](NC(=O)[C@H](NC(=O)CCCC(C)C)C(C)C)[C@@H](C)O)C(C)C)C(C)C)[C@H](C)CC)[C@H](C)OC(=O)[C@H](C(C)C)NC1=O assay_endpoint=GI50 measurement="638 nM"

Value source: ChEMBL document CHEMBL1156597
